Structures can show the parent of a compound that is named as a salt.
Listed here: items and their measured melting point.

CN1CCCC1CCOc1ccc2c(c1)CN(Cc1ccccc1)CC2 (stereo not shown) (as salt: oxalate) [Compound 10]    143 to 150 °C

Hello, please tell me recorded melting point for this one: CN1CCCCC1CCOc1ccc2c(c1)CN(CC1CCCCC1)CC2 (stereo not shown) (as salt: oxalate) [Compound 9] 101 to 111 °C

Hello, please tell me recorded melting point for this one: CCCN1CCc2ccc(OCCC3CCCN3C)cc2C1 (stereo not shown) (as salt: tartrate) 66 to 91 °C

Hello, please tell me recorded melting point for this one: CN1CCCCC1CCOc1ccc2c3c(ccc2c1)CCN(CC1CCCCC1)C3 (stereo not shown) (as salt: oxalate) [Compound 17] 124 to 127 °C

Hello, please tell me recorded melting point for this one: CN1CCCC(Oc2ccc3c(c2)CN(Cc2cccs2)CC3)CC1 (stereo not shown) (as salt: oxalate) [Compound 12] 98 to 110 °C

Hello, please tell me recorded melting point for this one: CCCCN1CCc2ccc(OCCC3CCCN3C)cc2C1 (stereo not shown) (as salt: tartrate) 95 to 105 °C

Hello, please tell me recorded melting point for this one: CCCN1CCc2ccc(OCCC3CCCCN3C)cc2C1 (stereo not shown) (as salt: hydrochloride) 186 to 190 °C

====

Where a name gives a salt, the structure may show the parent alone.
Listed here: items and their measured melting point.

Below, 6 compounds whose answers are already recorded.
CN1CCC[C@H]1CCOc1ccc2c3c(ccc2c1)CCN(CC1CCCCC1)C3 (as salt: oxalate)    271 to 274 °C
CCCN1CCc2ccc(OC3CCCN(C)CC3)cc2C1 (stereo not drawn) (as salt: tartrate)    76 to 97 °C
CN1CCC[C@@H]1CCOc1ccc2c3c(ccc2c1)CCN(CC1CCCCC1)C3 (as salt: hydrochloride)    274 to 277 °C
CN1CCC[C@H]1CCOc1ccc2c(c1)CN(CC1CCCCC1)CC2 (as salt: oxalate) [Compound 7]    195 to 199 °C
CN1CCCC(Oc2ccc3c4c(ccc3c2)CCN(CC2CCCCC2)C4)CC1 (stereo not drawn) (as salt: oxalate)    77 to 82 °C
CN1CCC[C@@H]1CCOc1ccc2c(c1)CN(CC1CCCCC1)CC2 (as salt: hydrochloride)    190 to 200 °C

Now look at this entry.
Hello, please tell me recorded melting point for this one: CCCCN1CCc2ccc(OC3CCCN(C)CC3)cc2C1 (stereo not drawn) (as salt: tartrate) 96 to 107 °C

====

Structures can show the parent of a compound that is named as a salt.
endpoint.label: melting point

Below, 2 compounds whose answers are already recorded.
CC(C)CCN1CCc2ccc(OCCC3CCCN3C)cc2C1 (centres unmarked) (as salt: tartrate) [Compound 3]    61 to 65 °C
CN1CCCC(Oc2ccc3c(c2)CN(Cc2ccccc2)CC3)CC1 (centres unmarked) (as salt: oxalate) [Compound 11]    108 to 116 °C

Hello, please tell me recorded melting point for this one: CC(C)CCN1CCc2ccc(OC3CCCN(C)CC3)cc2C1 (centres unmarked) (as salt: tartrate) [Compound 4] 60 to 70 °C

Hello, please tell me recorded melting point for this one: CC(C)CN1CCc2ccc(OCCC3CCCN3C)cc2C1 (centres unmarked) (as salt: tartrate) 77 to 80 °C

Hello, please tell me recorded melting point for this one: CN1CCC[C@H]1CCOc1ccc2c(c1)CN(CC1CCCCC1)CC2 (as salt: hydrochloride) [Compound 18] 238 to 241 °C
